EXPERIMENT: Cytotoxicity against human MCF7 cells after 48 hrs by MTT assay
Assay type: cell-based
Heads up, the class ranges for CC50 at 48 h are group A: < 10 µM; group B: ≥ 10 µM and < 20 µM; group C: ≥ 20 µM

>  <GIVEN_SMILES>
COc1ccc2c(c1)C(=O)C(c1ccc(C(F)(F)F)cc1)=[N+]2[O-]

>  <LABEL_VALUE>
group B

$$$$
>  <GIVEN_SMILES>
COc1ccc2c(c1)C(=O)C(c1ccc(Oc3ccccc3)cc1)=[N+]2[O-]

>  <LABEL_VALUE>
group A

$$$$
>  <GIVEN_SMILES>
COc1ccc2c(c1)C(=O)C(c1ccc(N(C)C)cc1)=[N+]2[O-]

>  <LABEL_VALUE>
group C

$$$$
>  <GIVEN_SMILES>
COc1ccc2c(c1)C(=O)C(c1ccc(Cl)c(C(F)(F)F)c1)=[N+]2[O-]

>  <LABEL_VALUE>
group B

$$$$
>  <GIVEN_SMILES>
COc1ccc2cc(C3=[N+]([O-])c4cc5c(cc4C3=O)OCO5)ccc2c1

>  <LABEL_VALUE>
group C

$$$$
>  <GIVEN_SMILES>
O=C1C(c2ccc(Cl)c(Cl)c2)=[N+]([O-])c2cc3c(cc21)OCO3

>  <LABEL_VALUE>
group A

$$$$
>  <GIVEN_SMILES>
COc1ccc(C2=[N+]([O-])c3cc(OC(F)(F)F)ccc3C2=O)cc1

>  <LABEL_VALUE>
group B

$$$$
>  <GIVEN_SMILES>
CCCC1=[N+]([O-])c2ccccc2C1=O

>  <LABEL_VALUE>
group C

$$$$
>  <GIVEN_SMILES>
O=C1C(c2ccc(Cl)cc2)=[N+]([O-])c2cc3c(cc21)OCO3

>  <LABEL_VALUE>
group B

$$$$
>  <GIVEN_SMILES>
COc1ccc2c(c1)C(=O)C(c1cccc(Cl)c1)=[N+]2[O-]

>  <LABEL_VALUE>
group A

$$$$

---

Parameter: half-life. Scope: all listed entries.
EXPERIMENT: Metabolic stability in CD1 mouse liver microsomes assessed as half life
Assay type: ADME, Microsome

>  <GIVEN_SMILES>
COc1ccc2c(c1)C(=O)C(c1ccc(N(C)C)cc1)=[N+]2[O-]

>  <QUALIFIER_SIGN>
=

>  <half-life / min>
6

$$$$
>  <GIVEN_SMILES>
COc1ccc(C2=[N+]([O-])c3ccccc3C2=O)cc1

>  <QUALIFIER_SIGN>
=

>  <half-life / min>
16

$$$$
>  <GIVEN_SMILES>
O=C1C(c2ccc(Cl)cc2)=[N+]([O-])c2cc3c(cc21)OCO3

>  <QUALIFIER_SIGN>
<

>  <half-life / min>
1

$$$$
>  <GIVEN_SMILES>
COc1ccc2c(c1)C(=O)C(c1ccc(OC(C)C)cc1)=[N+]2[O-]

>  <QUALIFIER_SIGN>
=

>  <half-life / min>
6

$$$$

---

Parameter: IC50. Scope: all listed entries.
Tested on: Plasmodium falciparum
EXPERIMENT: Antimalarial activity against Plasmodium falciparum K1 assessed as [3H]hypoxanthine incorporation by scintillation counting
Format: functional, organism-based
REPORTED_PROPERTY: IC50 (µM)

>  <COMPOUND>
O=C1C(c2ccc(Cl)c(Cl)c2)=[N+]([O-])c2ccccc21

>  <REPORTED_PROPERTY>
IC50

>  <VALUE_MEASURED>
0.08

$$$$
>  <COMPOUND>
COc1ccc2c(c1)C(=O)C(c1ccc(C)cc1)=[N+]2[O-]

>  <REPORTED_PROPERTY>
IC50

>  <VALUE_MEASURED>
0.02

$$$$
>  <COMPOUND>
COc1ccc2c(c1)C(=O)C(c1ccc(C)c(C)c1)=[N+]2[O-]

>  <REPORTED_PROPERTY>
IC50

>  <VALUE_MEASURED>
0.178

$$$$
>  <COMPOUND>
COc1ccc2c(c1)C(=O)C(c1ccc(OC(C)C)cc1)=[N+]2[O-]

>  <REPORTED_PROPERTY>
IC50

>  <VALUE_MEASURED>
0.0813

$$$$
>  <COMPOUND>
C[C@H]1[C@H](OC(=O)CCC(=O)[O-])O[C@@H]2O[C@@]3(C)CC[C@H]4[C@H](C)CC[C@@H]1[C@@]24OO3.[Na+] [SODIUM ARESUNATE]

>  <REPORTED_PROPERTY>
IC50

>  <VALUE_MEASURED>
0.004

$$$$
>  <COMPOUND>
O=C1C(c2ccc(Oc3ccccc3)cc2)=[N+]([O-])c2cc3c(cc21)OCO3

>  <REPORTED_PROPERTY>
IC50

>  <VALUE_MEASURED>
0.138

$$$$
>  <COMPOUND>
COc1ccc(C2=[N+]([O-])c3ccc(OC)cc3C2=O)cc1

>  <REPORTED_PROPERTY>
IC50

>  <VALUE_MEASURED>
0.016

$$$$
>  <COMPOUND>
COc1ccc(C2=[N+]([O-])c3cc(OC(F)(F)F)ccc3C2=O)cc1

>  <REPORTED_PROPERTY>
IC50

>  <VALUE_MEASURED>
0.112

$$$$
>  <COMPOUND>
COc1ccc2c(c1)C(=O)C(c1ccc(OC(F)(F)F)cc1)=[N+]2[O-]

>  <REPORTED_PROPERTY>
IC50

>  <VALUE_MEASURED>
0.081

$$$$

---

Parameter: log10(CC50 at 48 h). Scope: all listed entries.
EXPERIMENT: Cytotoxicity against human MCF7 cells after 48 hrs by MTT assay
Format: cell-based
REPORTED_PROPERTY: log10(CC50 at 48 h) (log10 of the value in µM)

>  <COMPOUND>
COc1ccc(C2=[N+]([O-])c3cc(C)ccc3C2=O)cc1

>  <log10(CC50 at 48 h)>
1.17

$$$$
>  <COMPOUND>
COc1ccc2cc(C3=[N+]([O-])c4ccccc4C3=O)ccc2c1

>  <log10(CC50 at 48 h)>
1.18

$$$$
>  <COMPOUND>
O=C1C(c2ccc(Cl)c(Cl)c2)=[N+]([O-])c2ccccc21

>  <log10(CC50 at 48 h)>
1.14

$$$$
>  <COMPOUND>
COc1ccc(C2=[N+]([O-])c3cc(OC)ccc3C2=O)cc1

>  <log10(CC50 at 48 h)>
0.94

$$$$
>  <COMPOUND>
COc1ccc2c(c1)C(=O)C(c1ccc(Cl)c(Cl)c1)=[N+]2[O-]

>  <log10(CC50 at 48 h)>
0.91

$$$$
>  <COMPOUND>
O=C1C(c2ccccc2)=[N+]([O-])c2ccccc21

>  <log10(CC50 at 48 h)>
1.29

$$$$
>  <COMPOUND>
CCC1=[N+]([O-])c2cc3c(cc2C1=O)OCO3

>  <log10(CC50 at 48 h)>
1.77

$$$$
>  <COMPOUND>
COc1ccc2c(c1)C(=O)C(c1ccc(C)c(C)c1)=[N+]2[O-]

>  <log10(CC50 at 48 h)>
1.41

$$$$
>  <COMPOUND>
COc1ccc(C2=[N+]([O-])c3ccc(OC)cc3C2=O)c(C)c1

>  <log10(CC50 at 48 h)>
-0.52

$$$$
>  <COMPOUND>
O=C1C(c2ccc(Cl)cc2)=[N+]([O-])c2cc(C(F)(F)F)ccc21

>  <log10(CC50 at 48 h)>
0.49

$$$$
>  <COMPOUND>
COc1ccc2c(c1)C(=O)C(c1ccc(C(C)=O)cc1)=[N+]2[O-]

>  <log10(CC50 at 48 h)>
1.60

$$$$
>  <COMPOUND>
C[C@H]1[C@H](OC(=O)CCC(=O)[O-])O[C@@H]2O[C@@]3(C)CC[C@H]4[C@H](C)CC[C@@H]1[C@@]24OO3.[Na+] [SODIUM ARESUNATE]

>  <log10(CC50 at 48 h)>
0.99

$$$$
>  <COMPOUND>
O=C1C(c2ccc(CO)cc2)=[N+]([O-])c2ccccc21

>  <log10(CC50 at 48 h)>
1.60

$$$$
>  <COMPOUND>
COc1ccc2c(c1)[N+]([O-])=C(c1ccc(Cl)cc1)C2=O

>  <log10(CC50 at 48 h)>
1.02

$$$$
>  <COMPOUND>
COC(=O)c1ccc2c(c1)[N+]([O-])=C(c1ccc(OC)cc1)C2=O

>  <log10(CC50 at 48 h)>
1.60

$$$$
>  <COMPOUND>
COc1ccc2c(c1)C(=O)C(c1ccc(C(C)(C)C)cc1)=[N+]2[O-]

>  <log10(CC50 at 48 h)>
1.04

$$$$
>  <COMPOUND>
O=C1C(c2ccc(Cl)c(C(F)(F)F)c2)=[N+]([O-])c2ccccc21

>  <log10(CC50 at 48 h)>
0.30

$$$$
>  <COMPOUND>
O=C1C(c2ccc(F)cc2)=[N+]([O-])c2ccccc21

>  <log10(CC50 at 48 h)>
0.94

$$$$

The origin of these recorded values is ChEMBL document CHEMBL1156797.
